# key: entry, value: Growth Rate
system: Fibroblast; assay: Incucyte cell viability with human fibroblast; type: toxicity, cell-based; details: 6 h, 10 µM, compound concentration 10 uM, replicate number 2; note: unitless GR value; below 1 slowed growth and below 0 cell loss

{"compound": "COc1cc(O)c(C(CC(=O)N2C[C@H](C)C[C@H](C)C2)c2ccc3c(c2)OCO3)c(OC)c1 (stereo not given in full)", "Growth Rate": 1}
{"compound": "O=C(Nc1c(-c2cccs2)nc2ccc(Cl)cn12)c1ccc(Cl)cc1", "Growth Rate": -1}
{"compound": "CC[N+](CC)(CC)CCOc1ccc(/C=C/c2ccccc2)cc1.[I-] [STILONIUM IODIDE]", "Growth Rate": -1}
{"compound": "Cn1c(C(=O)N[C@@H](CO)c2ccc(C(=O)O)cc2)cc2cc(Cl)ccc21", "Growth Rate": -0.6}
{"compound": "COc1cccc(Cn2cc(C(=O)Nc3ccc(C)c(S(=O)(=O)N4CCOCC4)c3)c(-c3ccc(C)cc3)n2)c1", "Growth Rate": 0.77}

Ref: ChEMBL document CHEMBL5303304
